# credit: patent US8106168B2

target: MMP-14 (Homo sapiens, UniProt P50281); assay: Selection and phage ELISA screening of anti-MMP-14 Fabs; format: binding; conditions: Fab from FAB310 phage display library
Value type: bind to human MMP-14

- M0040-C10: Fab that binds human MMP-14; DNA LV SEQ ID NO: 92, HV SEQ ID NO: 93 (antibody, V domains shown, Synthetically generated oligonucleotide) VL: QDIQMTQSPATLSASVGDRVTITCRASQTISTYLNWYQHKPGKAPELLIYAASSLQSGVPSRFSGSGSGTDFTLRISSLQPEDFATYYCQQSYTTPWTFGQGTKVEIK VH: EVQLLESGGGLVQPGGSLRLSCAASGFTFSRYMMVWVRQAPGKGLEWVSSIVSSGGKTWYADSVKGRFTISRDNSKNTLYLQMNSLRAEDTAMYYCARWDWGPFDYWGQGTLVTVSS: bind to human MMP-14
- M0038-H06: Fab that binds human MMP-14; DNA LV SEQ ID NO: 66, HV SEQ ID NO: 67 (antibody, V domains shown, Synthetically generated oligonucleotide) VL: QDIQMTQSPGTLSLSPGEGATLSCRASQIINPFYVAWYQQRPGQAPRLLIYASSRRAGGIPDRFSGSASGTDFTLTISRLEPEDFAVYYCQYFYNSMWTFGQGAKVEIR VH: EVQLLESGGGLVQPGGSLRLSCAASGFTFSWYNMTWVRQAPGKGLEWVSRISPSGGDTFYADSVKGRFTISRDNSKNTLYLQMNSLRAEDTAVYYCARAAIAPRPYGMDVWGQGTTVTVSS: bind to human MMP-14
